Test system: OCI-AML2
test_protocol: cell viability relative to vehicle control; higher = less cytotoxic;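 also: after 48 h exposure read by CellTiter-Glo luminescence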
condition_summary: 10 µM; SRSF2 genotype: wt/wt
Field: cell viability. Provide a value for each of the compounds that follow.
One number for each entry, in %.

# compound, cell viability, %
rows = [
    ("COc1ccc(-n2c(SCCCN3C(=O)c4cccc5cccc(c45)C3=O)nnc2-c2ccncc2)cc1", 100),
]

Quick request: cell viability for each listed item, please.
1. CCOC(=O)CCNc1cc(N2CCc3ccccc3CC2)nc(-c2ccccn2)n1
2. Cc1cc(Nc2cc(N)ncn2)c(=O)n2c1C(=O)NC21CCCCC1

1. 25.8
2. 88.5

Quick request: cell viability for each listed item, please.
1. Cc1ccc(Cl)c(Nc2ccccc2C(=O)O)c1Cl [Meclofenamate sodium]
2. C[C@]12CCC3=C4CCC(=O)C=C4CC[C@H]3[C@@H]1CC[C@@]2(O)CC#N

1: 99.4; 2: 106

---

Test system: MARIMO
test_protocol: cell viability relative to vehicle control; higher = less cytotoxic
condition_summary: 10 µM; SRSF2 genotype: SRSF2 wt/wt
Field: cell viability. Provide a value for each of the compounds that follow.
One number for each entry, in %.

Some compounds with known cell viability results, for comparison:
# compound, target_desc, quantity_unit, reading
data = [
    ("CN1CCN(C(=O)C=Cc2ccc([N+](=O)[O-])o2)CC1", "MARIMO", "%", 72.4),
    ("C=CC(=O)Nc1cc(Nc2nccc(-c3cn(C)c4ccccc34)n2)c(OC)cc1N(C)CCN(C)C", "MARIMO", "%", 1.36),
    ("O=C1C2=C(CCN(Cc3ccccc3)C2)N2CCN=C2N1Cc1ccc(C(F)(F)F)cc1", "MARIMO", "%", 36.9),
]

Quick request: cell viability for each listed item, please.
1. CC(C)Nc1cc(-c2c[nH]c(C(=O)N[C@H](CO)c3cccc(Cl)c3)c2)c(Cl)cn1
2. Nc1ccccc1NC(=O)c1ccc(CNc2nccc(-c3cccnc3)n2)cc1
3. Cc1cc(S(=O)(=O)O)c2c(C)ccc(C(C)C)cc1-2 [Sodium gualenate]
4. CC(C)=CCC/C(C)=C/CC/C(C)=C/CC/C=C(\C)CC/C=C(\C)CCC=C(C)C
5. C[C@@H]1O[C@@H](O[C@H]2[C@H](Oc3cc(O)c4c(c3)O[C@H](c3ccc(O)cc3)CC4=O)O[C@H](CO)[C@@H](O)[C@@H]2O)[C@H](O)[C@H](O)[C@H]1O [Naringin (Naringoside)]

1. 40
2. 9.28
3. 108
4. 105
5. 107

---

Test system: MARIMO
test_protocol: cell viability relative to vehicle control; higher = less cytotoxic
condition_summary: 10 µM; SRSF2 genotype: SRSF2 P95H/wt
Counter-ions that a name gives are not always drawn.
measurement_type: cell viability (%)
Give bare numbers, in %.

Some molecules with known cell viability results, for comparison:
# molecule, reading
measured = [
    ("COC1C(O)C(O)C(O)C(O)C1O (stereo unspecified)", 110),
    ("CC1(C)CC[C@]2(C(=O)O[C@@H]3O[C@H](CO)[C@@H](O)[C@H](O)[C@H]3O)CC[C@]3(C)C(=CC[C@@H]4[C@@]5(C)CC[C@H](O[C@@H]6O[C@H](C(=O)O)[C@@H](O)[C@H](O)[C@H]6O)C(C)(C)[C@@H]5CC[C@]43C)[C@@H]2C1", 103),
    ("CC(C)n1nccc1-c1ncccc1COc1cccc(O)c1C=O", 104),
    ("Nc1nc(N)c2nc(-c3cccc(O)c3)cnc2n1", 63.7),
    ("COC(=O)C=Cc1ccc(O)cc1 [Methyl 4-hydroxycinnamate]", 83.5),
    ("Cc1cnc(C(=O)O)c[n+]1[O-]", 96.7),
]

Quick request: cell viability for each listed item, please.
1. O=C(O)c1ccc(N2C(=O)C(=Cc3ccc(-c4ccc([N+](=O)[O-])cc4)o3)C=C2c2ccccc2)cc1
2. C=C[C@H]1CN2CC[C@H]1C[C@H]2[C@H](O)c1ccnc2ccc(OC)cc12 [Quinine hydrochloride dihydrate]
3. O=C(O)c1cc(=O)c2c(OCC(O)COc3cccc4oc(C(=O)O)cc(=O)c34)cccc2o1 [Disodium Cromoglycate]

[104, 87.7, 94.8]
